Just for reference, ChEMBL document CHEMBL1145884 is where these values come from.

- Test system: Staphylococcus aureus
- test.name: Antibacterial activity against Staphylococcus aureus SG 511
- Type: functional
Reported values of MIC for individual entries
Express it in µg/mL; write the number only.

Worked set:
{"compound": "C[C@@H](O)[C@H]1C(=O)N2C(C(=O)O)=C(S[C@@H]3CN[C@H](C(=O)N4C/C(=N\\O)C(C(=O)O)C4)C3)[C@H](C)[C@H]12 (some centres not stated)", "MIC [µg/mL]": 0.098}
{"compound": "C[C@@H](O)[C@H]1C(=O)N2C(C(=O)O)=C(S[C@@H]3CN[C@H](C(=O)N4C/C(=N\\O)C(CN)C4)C3)[C@H](C)[C@H]12 (some centres not stated)", "MIC [µg/mL]": 0.098}
{"compound": "CCOC(=O)C1CN(C(=O)[C@@H]2C[C@H](SC3=C(C(=O)O)N4C(=O)[C@H]([C@@H](C)O)[C@H]4[C@H]3C)CN2)C/C1=N\\O (some centres not stated)", "MIC [µg/mL]": 0.195}

*Q* Answer with the recorded MIC of C[C@@H](O)[C@H]1C(=O)N2C(C(=O)O)=C(SCCNC=N)C[C@H]12 [IMIPENEM ANHYDROUS] only.
*A* 0.025

*Q* Kindly indicate its recorded MIC. Item: C[C@@H](O)[C@H]1C(=O)N2C(C(=O)O)=C(S[C@@H]3CN[C@H](C(=O)N4CC/C(=N/O)C4)C3)[C@H](C)[C@H]12
*A* 0.195

*Q* Report measured MIC; entry is CO/N=C1\CN(C(=O)[C@@H]2C[C@H](SC3=C(C(=O)O)N4C(=O)[C@H]([C@@H](C)O)[C@H]4[C@H]3C)CN2)CC1CN (some centres not stated)
*A* 0.098

*Q* Please report MIC for the following compound: C[C@@H](O)[C@H]1C(=O)N2C(C(=O)O)=C(S[C@@H]3CN[C@H](C(=O)N(C)C)C3)[C@H](C)[C@H]12
*A* 0.195

----------
Here, each record is paired with measured MIC data.
- Tested on: Escherichia coli
- test.name: Antibacterial activity against Escherichia coli 1507E
- Format: functional
Respond with the bare value in µg/mL.

{"compound.structure.string": "C[C@@H](O)[C@H]1C(=O)N2C(C(=O)O)=C(S[C@@H]3CN[C@H](C(=O)N(C)C)C3)[C@H](C)[C@H]12", "MIC [µg/mL]": 0.025}
{"compound.structure.string": "C[C@@H](O)[C@H]1C(=O)N2C(C(=O)O)=C(S[C@@H]3CN[C@H](C(=O)N4CC/C(=N/O)C4)C3)[C@H](C)[C@H]12", "MIC [µg/mL]": 0.025}

Please turn your attention to the following entry.
*Q* Supply MIC measured with Escherichia coli for CO/N=C1/CCN(C(=O)[C@@H]2C[C@H](SC3=C(C(=O)O)N4C(=O)[C@H]([C@@H](C)O)[C@H]4[C@H]3C)CN2)C1 .
*A* 0.049

----------
Attribute: MIC
- Test system: Escherichia coli
- test.name: Antibacterial activity against Escherichia coli 078
- Type: functional

Below, each entry is followed by its recorded MIC result.
{"compound": "C[C@@H](O)[C@H]1C(=O)N2C(C(=O)O)=C(S[C@@H]3CN[C@H](C(=O)N(C)C)C3)[C@H](C)[C@H]12", "val": "0.025 µg/mL"}
{"compound": "CO/N=C1/CCN(C(=O)[C@@H]2C[C@H](SC3=C(C(=O)O)N4C(=O)[C@H]([C@@H](C)O)[C@H]4[C@H]3C)CN2)C1", "val": "0.049 µg/mL"}
{"compound": "CO/N=C1\\CN(C(=O)[C@@H]2C[C@H](SC3=C(C(=O)O)N4C(=O)[C@H]([C@@H](C)O)[C@H]4[C@H]3C)CN2)CC1CN (stereo not given in full)", "val": "0.025 µg/mL"}
{"compound": "C[C@@H](O)[C@H]1C(=O)N2C(C(=O)O)=C(S[C@@H]3CN[C@H](C(=O)N4CC/C(=N/O)C4)C3)[C@H](C)[C@H]12", "val": "0.025 µg/mL"}

*Q* Give me measured MIC, please, for this compound: CCOC(=O)C1CN(C(=O)[C@@H]2C[C@H](SC3=C(C(=O)O)N4C(=O)[C@H]([C@@H](C)O)[C@H]4[C@H]3C)CN2)C/C1=N\O (stereo not given in full)
*A* 0.013 µg/mL

----------
- Test system: Streptococcus pyogenes
- test.name: Antibacterial activity against Streptococcus pyogenes 308A
- Type: functional
measured.metric: MIC (µg/mL)
Give the quantity in µg/mL, number only.

Consider the reported MIC for these compounds:
{"compound": "C[C@@H](O)[C@H]1C(=O)N2C(C(=O)O)=C(S[C@@H]3CN[C@H](C(=O)N4C/C(=N\\O)C(CN)C4)C3)[C@H](C)[C@H]12 (some centres not stated)", "scale.unit": "µg/mL", "MIC": 0.002}
{"compound": "CCOC(=O)C1CN(C(=O)[C@@H]2C[C@H](SC3=C(C(=O)O)N4C(=O)[C@H]([C@@H](C)O)[C@H]4[C@H]3C)CN2)C/C1=N\\O (some centres not stated)", "scale.unit": "µg/mL", "MIC": 0.013}
{"compound": "CO/N=C1\\CN(C(=O)[C@@H]2C[C@H](SC3=C(C(=O)O)N4C(=O)[C@H]([C@@H](C)O)[C@H]4[C@H]3C)CN2)CC1CN (some centres not stated)", "scale.unit": "µg/mL", "MIC": 0.004}
{"compound": "C[C@@H](O)[C@H]1C(=O)N2C(C(=O)O)=C(S[C@@H]3CN[C@H](C(=O)N(C)C)C3)[C@H](C)[C@H]12", "scale.unit": "µg/mL", "MIC": 0.013}
{"compound": "C[C@@H](O)[C@H]1C(=O)N2C(C(=O)O)=C(S[C@@H]3CN[C@H](C(=O)N4C/C(=N\\O)C(C(=O)O)C4)C3)[C@H](C)[C@H]12 (some centres not stated)", "scale.unit": "µg/mL", "MIC": 0.013}
{"compound": "C[C@@H](O)[C@H]1C(=O)N2C(C(=O)O)=C(S[C@@H]3CN[C@H](C(=O)N4CC/C(=N/O)C4)C3)[C@H](C)[C@H]12", "scale.unit": "µg/mL", "MIC": 0.013}

*Q* Tell me measured MIC for C[C@@H](O)[C@H]1C(=O)N2C(C(=O)O)=C(SCCNC=N)C[C@H]12 [IMIPENEM ANHYDROUS] please.
*A* 0.007
